Test system: S. aureus RN450
Test: In Vitro Anti-Bacterial Activity Assay (MIC), gram positive
Type: cell-based
Details: Staphylococcus aureus, RN450, 18 h, MIC class, Table 3 (Continued); read-out: Gram+ activity
readout label: MIC

Record CCOCc1cccc(-c2ccc(O)c3c2C[C@H]2C[C@H]4[C@H](N(C)C)C(O)=C(C(N)=O)C(=O)[C@@]4(O)C(O)=C2C3=O)c1 , field MIC: < 4 µg/mL

Recorded MIC (compound COc1ccc(C#Cc2cc(N(C)C)c3c(c2O)C(=O)C2=C(O)[C@]4(O)C(=O)C(C(N)=O)=C(O)[C@@H](N(C)C)[C@@H]4C[C@@H]2C3)cc1 ): < 4 µg/mL

Given item CCCC(=O)C[C@@H]1[C@H]2[C@H](N(C)C)C(O)=C(C(N)=O)C(=O)[C@@]2(O)C(O)=C2C(=O)c3c(O)cccc3C(C)[C@H]21 (stereo partly drawn) , the value recorded as its MIC is < 4 µg/mL
